Biological target: human c-fms, full length, on cells (human, UniProt P07333 20-972)
Sequence (P07333 20-972): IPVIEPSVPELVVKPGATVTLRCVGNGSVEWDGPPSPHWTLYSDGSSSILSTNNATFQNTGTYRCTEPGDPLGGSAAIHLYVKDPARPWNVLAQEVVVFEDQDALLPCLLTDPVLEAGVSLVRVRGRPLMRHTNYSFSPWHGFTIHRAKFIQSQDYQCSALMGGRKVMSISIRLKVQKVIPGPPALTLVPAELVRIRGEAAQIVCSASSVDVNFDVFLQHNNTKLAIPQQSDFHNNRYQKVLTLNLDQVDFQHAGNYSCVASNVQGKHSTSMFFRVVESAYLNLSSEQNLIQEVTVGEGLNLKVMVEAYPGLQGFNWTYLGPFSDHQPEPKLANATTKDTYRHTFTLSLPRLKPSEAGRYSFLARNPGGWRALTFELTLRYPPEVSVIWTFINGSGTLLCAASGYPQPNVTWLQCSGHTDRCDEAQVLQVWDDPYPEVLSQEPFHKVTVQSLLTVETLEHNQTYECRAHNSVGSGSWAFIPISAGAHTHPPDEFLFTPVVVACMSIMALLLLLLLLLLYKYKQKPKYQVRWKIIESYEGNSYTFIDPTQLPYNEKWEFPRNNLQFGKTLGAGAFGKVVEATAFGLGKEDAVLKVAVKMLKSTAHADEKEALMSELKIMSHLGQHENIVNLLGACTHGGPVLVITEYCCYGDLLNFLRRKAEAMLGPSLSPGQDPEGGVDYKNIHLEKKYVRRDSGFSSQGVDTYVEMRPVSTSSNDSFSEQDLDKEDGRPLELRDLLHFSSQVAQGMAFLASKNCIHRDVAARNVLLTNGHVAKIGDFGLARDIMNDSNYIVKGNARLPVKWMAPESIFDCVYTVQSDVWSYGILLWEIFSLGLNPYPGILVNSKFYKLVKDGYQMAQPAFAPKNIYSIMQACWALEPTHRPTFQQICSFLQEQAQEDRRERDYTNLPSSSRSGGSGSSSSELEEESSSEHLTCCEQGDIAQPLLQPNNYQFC
Assay: cell-based or functional assay
PROPERTY: AML-5 bioassay IC50 (ng/mL)
Use ng/mL as the unit, but write only the number.

# annotated cases, reported AML-5 bioassay IC50 shown
binder="anti-c-fms hybridoma antibody 1.64 (antibody, IgG1, V domains shown, Hybridoma IgG1 (cohort 1); also called 1.64.1; 1.64.2) VH: EVQLVESGGGLVQPGGSLRLSCAASGFTFSSYDMHWVRQATGKGLEWVSGIGTAGDTYYPGSVKGRFNISRENAKNSLYLQMNSLRAGDTAVYYCAREGSWYGFDYWGQGTLVTVSS VL: EIVLTQSPGTLSLSPGERATLSCRASQSVSSGYLAYLAWYQQKPGQAPRLLIYGASSTATGIPDRFSGSGSGTDFTLTISRLEPEDFAVYYCQQYGSSPITFGQGTRLEIK" reported_result=0.6
binder="anti-c-fms hybridoma antibody 2.534 (antibody, IgG2, V domains shown, Hybridoma IgG2 (cohort 2); also called 2.534.1; 2.534.2) VH: QVQLQESGPGLVKPSQTLSLTCTVSGGSISSGGYYWSWIRQHPGKGLEWIGYISYSGDTYYNPSLKSRLTISVDTSKHQFSLRLSSVTSADTAVYYCASLDLYGDYFDYWGQGTLVTVSS VL: EIVLTQSPDFQSVTPKEKVTITCRASQYIGSSLHWYQQTPDQSPKLLINYVSQSFSGVPSRFSGSGSGTDFTLTINSLEAEDAATYYCHQSSSLPFTFGPGTKVDIK" reported_result=3

# evaluate next
Tell me its AML-5 bioassay IC50 given anti-c-fms hybridoma antibody 1.134 (antibody, IgG1, V domains shown, Hybridoma IgG1 (cohort 1); also called 1.134.1) VH: QVQLVESGGGVVQPGRSLRLSCAASGFTFSSYGMHWVRQAPGKGLEWVAVIWYDGSNKYYADSVKGRFTISRDNSKNTLYLQMNSLRAEDTAVYYCASSSWSYYGMDVWGQGTTVTVSS VL: DIQMTQSPSSLSASVGDRVTITCQASQDINNYLNWYQQKPGKAPKLLIYDASNLEIGVPSRFSGSGSGTDFIFTISSLQPEDIATYYCQQYDNFPFTFGGGTKVEIK as the entry.
1

Data provenance is patent US20090155164A1.
